assay: Convulsant action and lethality in rats, intraperitoneal injection; assay type: in vivo, rat; settings: rat, in vivo, ip, read-out: non-convulsant dose
Assay metric: NOAEL (mg/kg)

INSERT INTO assay_data (compound, assay_metric, value_measured) VALUES
  ('CC#CC#CC#CC=CC1OCCCC1O (stereo not shown)', 'NOAEL', 2.24);
